// data source = patent US9902696B2

# IC50 per record follows
molecular target: recombinant human baculovirus-expressed GST-tagged FASN (Homo sapiens); construct: GST; experiment: FASN enzyme activity assay, fluorescence-based detection of CoA with CPM; type: biochemical; conditions: 5 nM FASN, 150 μM NADPH, 10 μM acetyl-CoA, 25 μM malonyl-CoA, 90 minutes incubation; read-out: IC50 data for Compounds of Formulae I-V/V(a): Activity
Sequence (P49327 whole entry): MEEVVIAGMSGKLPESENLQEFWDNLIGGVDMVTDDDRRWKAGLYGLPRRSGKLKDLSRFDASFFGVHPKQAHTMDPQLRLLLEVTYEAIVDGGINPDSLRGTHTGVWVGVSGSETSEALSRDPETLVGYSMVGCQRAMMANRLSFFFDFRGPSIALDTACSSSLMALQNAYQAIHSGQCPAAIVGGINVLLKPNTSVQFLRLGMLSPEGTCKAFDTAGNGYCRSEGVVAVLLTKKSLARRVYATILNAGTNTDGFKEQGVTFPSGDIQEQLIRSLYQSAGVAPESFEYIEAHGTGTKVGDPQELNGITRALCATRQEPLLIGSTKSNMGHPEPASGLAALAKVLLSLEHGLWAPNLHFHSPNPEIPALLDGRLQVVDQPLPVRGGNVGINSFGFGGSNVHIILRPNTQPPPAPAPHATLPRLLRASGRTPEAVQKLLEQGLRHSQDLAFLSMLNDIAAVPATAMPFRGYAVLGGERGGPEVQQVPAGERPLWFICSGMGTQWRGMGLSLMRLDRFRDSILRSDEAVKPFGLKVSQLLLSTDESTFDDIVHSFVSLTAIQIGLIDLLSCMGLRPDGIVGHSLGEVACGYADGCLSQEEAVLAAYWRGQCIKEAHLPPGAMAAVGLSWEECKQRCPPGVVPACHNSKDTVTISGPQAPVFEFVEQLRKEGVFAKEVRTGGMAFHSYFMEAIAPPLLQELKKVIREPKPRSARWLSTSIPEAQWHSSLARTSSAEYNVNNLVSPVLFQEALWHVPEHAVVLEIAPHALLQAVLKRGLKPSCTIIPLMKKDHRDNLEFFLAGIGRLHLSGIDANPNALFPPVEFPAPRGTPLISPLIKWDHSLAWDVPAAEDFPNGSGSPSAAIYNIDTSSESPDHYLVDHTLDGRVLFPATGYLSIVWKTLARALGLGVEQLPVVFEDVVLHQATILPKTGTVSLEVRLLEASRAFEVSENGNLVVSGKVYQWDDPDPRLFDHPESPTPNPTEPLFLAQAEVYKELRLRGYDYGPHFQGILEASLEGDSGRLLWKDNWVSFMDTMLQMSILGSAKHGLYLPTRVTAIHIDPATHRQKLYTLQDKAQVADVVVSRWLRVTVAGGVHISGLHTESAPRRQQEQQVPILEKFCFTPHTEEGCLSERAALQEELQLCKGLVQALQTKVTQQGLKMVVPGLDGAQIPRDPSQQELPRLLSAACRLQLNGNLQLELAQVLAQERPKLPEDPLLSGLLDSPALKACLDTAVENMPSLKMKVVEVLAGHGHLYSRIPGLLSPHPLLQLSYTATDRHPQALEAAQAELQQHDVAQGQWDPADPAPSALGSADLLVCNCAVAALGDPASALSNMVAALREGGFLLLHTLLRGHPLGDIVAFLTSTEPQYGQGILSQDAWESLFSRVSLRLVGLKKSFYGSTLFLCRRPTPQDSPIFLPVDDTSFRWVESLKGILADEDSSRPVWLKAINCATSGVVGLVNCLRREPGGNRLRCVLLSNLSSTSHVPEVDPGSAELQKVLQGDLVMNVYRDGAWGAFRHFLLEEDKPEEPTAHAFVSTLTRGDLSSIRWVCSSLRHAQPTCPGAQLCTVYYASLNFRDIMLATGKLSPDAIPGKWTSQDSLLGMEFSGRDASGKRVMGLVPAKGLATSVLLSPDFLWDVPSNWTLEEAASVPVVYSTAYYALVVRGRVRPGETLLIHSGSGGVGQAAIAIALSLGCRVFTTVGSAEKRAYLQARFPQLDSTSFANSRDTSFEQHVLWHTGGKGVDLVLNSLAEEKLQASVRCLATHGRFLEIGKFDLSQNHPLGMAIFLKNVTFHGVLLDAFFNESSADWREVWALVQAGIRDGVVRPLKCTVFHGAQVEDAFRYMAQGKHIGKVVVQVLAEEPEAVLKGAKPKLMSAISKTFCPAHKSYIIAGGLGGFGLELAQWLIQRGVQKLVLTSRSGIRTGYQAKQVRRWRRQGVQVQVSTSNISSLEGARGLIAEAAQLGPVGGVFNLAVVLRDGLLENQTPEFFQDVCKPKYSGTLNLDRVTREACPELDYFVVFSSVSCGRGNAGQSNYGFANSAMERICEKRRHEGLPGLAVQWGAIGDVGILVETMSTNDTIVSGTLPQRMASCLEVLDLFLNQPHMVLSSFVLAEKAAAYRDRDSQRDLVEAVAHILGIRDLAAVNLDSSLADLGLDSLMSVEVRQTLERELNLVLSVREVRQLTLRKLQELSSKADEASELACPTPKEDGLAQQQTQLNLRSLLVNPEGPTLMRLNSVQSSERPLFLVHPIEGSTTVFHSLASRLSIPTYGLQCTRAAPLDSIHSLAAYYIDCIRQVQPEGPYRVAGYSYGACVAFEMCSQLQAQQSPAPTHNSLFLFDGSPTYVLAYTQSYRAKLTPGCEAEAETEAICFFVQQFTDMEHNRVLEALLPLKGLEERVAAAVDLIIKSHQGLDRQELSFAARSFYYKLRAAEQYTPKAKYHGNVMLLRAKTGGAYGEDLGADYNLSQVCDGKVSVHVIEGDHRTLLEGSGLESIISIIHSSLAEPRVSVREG
Counter-ions that a name gives are not always drawn.

Recorded results for 4 compounds are shown here.
Looking up COc1cc2ncc(-c3ccc(OC4CCN(C(=O)[C@H]5CCCO5)CC4)cc3)cc2cc1F [Example 446] , I found its IC50 recorded as 1 to 10 µM

So for Cc1c(-c2ccc(OC3CCN(C(=O)C4CC4)CC3)cc2)ccc2nccn12 [Example 287] , the logged IC50 turned out to be 0.1 to 0.999 µM

Lab note: measured IC50 of Cc1nccc2c(C)c(-c3ccc(OC4CCN(C(=O)C5CC5)CC4)cc3)ccc12 [Example 473, HCl] was 0.1 to 0.999 µM

Form field IC50, entry Cc1cc(-c2ccc(OC3CCN(C(=O)[C@H]4CCCO4)CC3)cc2)cc2ncccc12 [Example 352] : 0.001 to 0.099 µM

Read the next record carefully.
Lab note: measured IC50 of Cc1ccc2cc(-c3ccc(OC4CCN(C(=O)[C@H]5CCCO5)CC4)cc3)cnc2c1 [Example 482, HCl] was 0.001 to 0.099 µM
